# Assay Notes: Equilibrium solubility in simulated intestinal fluid, dual level DoE, fed arm
# Type: physicochemical
# Condition Parameters: fed, current study (Figure 3)
Measure Name: statistical significance of DoE factor sodium oleate on equilibrium solubility

- Molecule: "CN1CC(=O)N2[C@H](c3ccc4c(c3)OCO4)c3[nH]c4ccccc4c3C[C@@H]2C1=O [tadalafil]"
  Value Observed: "NS ^e ^g"
- Molecule: "COc1cc(C(=O)NS(=O)(=O)c2ccccc2C)ccc1Cc1cn(C)c2ccc(NC(=O)OC3CCCC3)cc12 [zafirlukast]"
  Value Observed: "NS ^e"
- Molecule: "O=C1NC(=O)C(c2ccccc2)(c2ccccc2)N1 [phenytoin]"
  Value Observed: "NS ^e ^g"
- Molecule: "COc1ccccc1OCCNCC(O)COc1cccc2[nH]c3ccccc3c12 (stereo not shown) [carvedilol]"
  Value Observed: "NS ^e ^g"

* * *

# Assay Notes: Equilibrium solubility in simulated intestinal fluid, dual level DoE, fed arm
# Assay type: physicochemical
# Condition Parameters: fed, current study (Figure 3)
Measure Name: statistical significance of DoE factor sodium oleate on equilibrium solubility

- Molecule: "C[C@@H](O[C@H]1OCCN(Cc2n[nH]c(=O)[nH]2)[C@H]1c1ccc(F)cc1)c1cc(C(F)(F)F)cc(C(F)(F)F)c1 [aprepitant]"
  Value Observed: "NS ^e ^g"
- Molecule: "CCOC(=O)C1=C(C)NC(C)=C(C(=O)OC)C1c1cccc(Cl)c1Cl (stereo not shown)"
  Value Observed: "S ^d"
- Molecule: "COc1ccc2c(c1)c(CC(=O)O)c(C)n2C(=O)c1ccc(Cl)cc1"
  Value Observed: "NS ^e ^g"

* * *

# Assay Notes: Equilibrium solubility in simulated intestinal fluid, dual level DoE, fasted arm
# Assay type: physicochemical
# Condition Parameters: fasted, current study (Figure 3)
Measure Name: statistical significance of DoE factor pH on equilibrium solubility

- Compound: "COc1ccccc1OCCNCC(O)COc1cccc2[nH]c3ccccc3c12 (centres unmarked)"
  Value Observed: "NS ^e ^g"
- Compound: "O=C1NC(=O)C(c2ccccc2)(c2ccccc2)N1"
  Value Observed: "S ^d"
- Compound: "C[C@@H](O[C@H]1OCCN(Cc2n[nH]c(=O)[nH]2)[C@H]1c1ccc(F)cc1)c1cc(C(F)(F)F)cc(C(F)(F)F)c1 [aprepitant]"
  Value Observed: "NS ^e ^g"
- Compound: "CC(C)(Sc1cc(C(C)(C)C)c(O)c(C(C)(C)C)c1)Sc1cc(C(C)(C)C)c(O)c(C(C)(C)C)c1"
  Value Observed: "NS ^e ^g"
- Compound: "CN1CC(=O)N2[C@H](c3ccc4c(c3)OCO4)c3[nH]c4ccccc4c3C[C@@H]2C1=O"
  Value Observed: "NS ^e ^g"

get_value(item= "COc1cc(C(=O)NS(=O)(=O)c2ccccc2C)ccc1Cc1cn(C)c2ccc(NC(=O)OC3CCCC3)cc12" , readout=statistical significance of DoE factor pH on equilibrium solubility) returns S ^d

get_value(item= CCOC(=O)C1=C(C)NC(C)=C(C(=O)OC)C1c1cccc(Cl)c1Cl (centres unmarked) , readout=statistical significance of DoE factor pH on equilibrium solubility) returns S ^d

get_value(item= "COc1ccc2c(c1)c(CC(=O)O)c(C)n2C(=O)c1ccc(Cl)cc1" , readout=statistical significance of DoE factor pH on equilibrium solubility) returns S ^d
